Collected pIC50 values appear next to each entry.
Target: human TRPV3 (Homo sapiens, UniProt Q8NET8)
Sequence (Q8NET8 whole entry): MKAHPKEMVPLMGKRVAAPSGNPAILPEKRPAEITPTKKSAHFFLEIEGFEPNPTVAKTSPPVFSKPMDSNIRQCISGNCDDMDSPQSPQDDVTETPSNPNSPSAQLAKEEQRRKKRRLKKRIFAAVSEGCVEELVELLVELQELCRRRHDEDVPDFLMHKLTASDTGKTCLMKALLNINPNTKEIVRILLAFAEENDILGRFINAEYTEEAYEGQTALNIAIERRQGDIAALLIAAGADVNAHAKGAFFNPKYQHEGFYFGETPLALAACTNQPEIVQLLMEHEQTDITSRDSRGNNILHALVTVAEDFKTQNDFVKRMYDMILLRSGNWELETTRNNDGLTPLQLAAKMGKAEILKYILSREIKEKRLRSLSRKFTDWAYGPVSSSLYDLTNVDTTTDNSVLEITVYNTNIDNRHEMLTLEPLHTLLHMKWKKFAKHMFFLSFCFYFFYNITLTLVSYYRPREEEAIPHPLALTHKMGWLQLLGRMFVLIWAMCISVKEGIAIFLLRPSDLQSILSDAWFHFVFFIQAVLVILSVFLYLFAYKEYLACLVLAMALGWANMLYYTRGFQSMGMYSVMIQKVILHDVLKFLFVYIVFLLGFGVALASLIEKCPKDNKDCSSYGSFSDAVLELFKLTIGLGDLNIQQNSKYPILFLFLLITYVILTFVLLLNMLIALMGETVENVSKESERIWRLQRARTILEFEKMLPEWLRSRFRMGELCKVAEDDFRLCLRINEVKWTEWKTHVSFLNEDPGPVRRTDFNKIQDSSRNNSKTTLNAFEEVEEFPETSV
Assay: Calcium flux assay (FLIPR TETRA), recombinant HEK293 cells expressing TRPV3, 2-APB response
Conditions: 2-APB at its EC80
pIC50: −log10 of the molar value.

1) CCOc1ncnc(OCC)c1C(=O)Nc1nc(C(F)(F)F)c(-c2ccc(Cl)cc2)s1 [Example 5]
6.00 to 6.30
2) COc1ncnc(OC)c1C(=O)Nc1nc(C(F)(F)F)c(-c2ccnc(C3(C#N)CC3)c2)s1 [Example 151]
> 7.30
3) CCc1sc(NC(=O)c2c(OC)nc(C)nc2OC)nc1C(F)(F)F [Example 69]
7.00 to 7.30
4) CCSc1ncnc(OC)c1C(=O)Nc1nc(C(F)(F)F)c(-c2ccccc2C#N)s1 [Example 160]
> 7.30
5) COc1ncnc(OC)c1C(=O)Nc1nc(C(F)(F)F)c(-c2ccc(OCC(F)(F)F)nc2)s1 [Example 194]
6.30 to 7.00
6) COc1ncnc(OC)c1C(=O)Nc1nc(C(F)(F)F)c(S(=O)(=O)Cc2ccccc2)s1 [Example 111]
6.00 to 6.30
7) CCn1cc(-c2sc(NC(=O)c3c(OC)ncnc3OC)nc2C(F)(F)F)c(C)n1 [Example 200]
> 7.30
8) COc1ncnc(OC)c1C(=O)Nc1nc(-c2ccc(OC(F)(F)F)cc2)cs1 [Example 93]
6.30 to 7.00
9) COc1ncnc(OC)c1C(=O)Nc1nc(C(F)(F)F)c(/C(=N/O)c2ccccc2)s1 [Example 126]
> 7.30
10) COc1ncnc(OC)c1C(=O)Nc1nc(C2CC2)c(Cc2ccc(F)cc2)s1 [Example 190]
7.00 to 7.30

Input line: For the molecule COc1ncnc(OC)c1C(=O)Nc1nc(C(F)(F)F)c(C2CC(C(C)C)=NO2)s1 (stereo not drawn) [Example 170] , report pIC50.
Output line: 6.30 to 7.00

Input line: For the molecule COc1ncnc(OC)c1C(=O)Nc1nc(C(F)(F)F)c(-c2cccc(NS(=O)(=O)N(C)C)c2)s1 [Example 201] , report pIC50.
Output line: 7.00 to 7.30

meta.source: patent US20180243298A1
